List of relative viability values.
# Test system: NCI-H1355
# assay-name: relative viability (nuclei count vs DMSO), 5 days (fraction); higher = more cells survive
# measurement-setup: first compound 4 µM

compound: Clc1ccc(Nc2nnc(Cc3ccncc3)c3ccccc23)cc1 [Vatalanib] + O=C(c1cc(Cc2n[nH]c(=O)c3ccccc23)ccc1F)N1CCN(C(=O)C2CC2)CC1 [Olaparib] (partner 8 µM)
relative viability: 0.706
--
compound: C[C@@H]1CN(CC(=O)Nc2ccc3c(c2)Cc2cccc(-c4cc(=O)cc(N5CCOCC5)o4)c2S3)C[C@H](C)O1 + CC(C)C[C@H](NC(=O)[C@H](Cc1ccccc1)NC(=O)c1cnccn1)B(O)O [Bortezomib] (partner 0.002 µM)
relative viability: 1.18

###

# System: 201T
# assay-name: relative viability (nuclei count vs DMSO), 5 days (fraction); higher = more cells survive
# measurement-setup: first compound 0.4 µM
List of relative viability values.
measured-quantity: relative viability

molecule: Clc1ccc(Nc2nnc(Cc3ccncc3)c3ccccc23)cc1 [Vatalanib] + N=C(N)NC(=N)NCCc1ccccc1 [Phenformin] (partner 250 µM)
value-observed: 0.437
//
molecule: C[C@@H]1CN(CC(=O)Nc2ccc3c(c2)Cc2cccc(-c4cc(=O)cc(N5CCOCC5)o4)c2S3)C[C@H](C)O1 + C[C@@H](Oc1cc(-c2cnn(C3CCNCC3)c2)cnc1N)c1c(Cl)ccc(F)c1Cl [Crizotinib] (partner 1 µM)
value-observed: 1.04
//
molecule: Clc1ccc(Nc2nnc(Cc3ccncc3)c3ccccc23)cc1 [Vatalanib] + COc1cc2c(Oc3ccc(NC(=O)C4(C(=O)Nc5ccc(F)cc5)CC4)cc3F)ccnc2cc1OCCCN1CCOCC1 [Foretinib] (partner 0.25 µM)
value-observed: 1.16
//
molecule: C[C@@H]1CN(CC(=O)Nc2ccc3c(c2)Cc2cccc(-c4cc(=O)cc(N5CCOCC5)o4)c2S3)C[C@H](C)O1 + CC(C)C[C@H](NC(=O)[C@H](Cc1ccccc1)NC(=O)c1cnccn1)B(O)O [Bortezomib] (partner 0.002 µM)
value-observed: 1.16
//
molecule: COc1cc(N2CCC(C(N)=O)CC2)ccc1Nc1nc(N)c(Cl)c(Nc2ccccc2S(=O)(=O)C(C)C)n1 [HG-5-88-01] + C[C@@H](Oc1cc(-c2cnn(C3CCNCC3)c2)cnc1N)c1c(Cl)ccc(F)c1Cl [Crizotinib] (partner 1 µM)
value-observed: 1.03
//
molecule: C[C@@H]1CN(CC(=O)Nc2ccc3c(c2)Cc2cccc(-c4cc(=O)cc(N5CCOCC5)o4)c2S3)C[C@H](C)O1 + Cc1cc(Nc2cc(N3CCN(C)CC3)nc(Sc3ccc(NC(=O)C4CC4)cc3)n2)n[nH]1 [Tozasertib] (partner 0.1 µM)
value-observed: 0.909
//
molecule: COc1cc(N2CCC(C(N)=O)CC2)ccc1Nc1nc(N)c(Cl)c(Nc2ccccc2S(=O)(=O)C(C)C)n1 [HG-5-88-01] + CS(=O)(=O)N1CCN(Cc2cc3nc(-c4cccc5[nH]ncc45)nc(N4CCOCC4)c3s2)CC1 [Pictilisib] (partner 1 µM)
value-observed: 0.649
//
molecule: Clc1ccc(Nc2nnc(Cc3ccncc3)c3ccccc23)cc1 [Vatalanib] + Nc1ncn([C@H]2C[C@H](O)[C@@H](CO)O2)c(=O)n1 [Decitabine] (partner 2 µM)
value-observed: 0.881

###

List of relative viability values.
# Test system: IA-LM
# assay-name: relative viability (nuclei count vs DMSO), 5 days (fraction); higher = more cells survive
# measurement-setup: first compound 0.04 µM

compound: C[C@@H]1CN(CC(=O)Nc2ccc3c(c2)Cc2cccc(-c4cc(=O)cc(N5CCOCC5)o4)c2S3)C[C@H](C)O1 + COc1cc2c(Oc3ccc(NC(=O)C4(C(=O)Nc5ccc(F)cc5)CC4)cc3F)ccnc2cc1OCCCN1CCOCC1 [Foretinib] (partner 0.25 µM)
relative viability: 1.19
//
compound: C[C@@H]1CN(CC(=O)Nc2ccc3c(c2)Cc2cccc(-c4cc(=O)cc(N5CCOCC5)o4)c2S3)C[C@H](C)O1 + CS(=O)(=O)CCNCc1ccc(-c2ccc3ncnc(Nc4ccc(OCc5cccc(F)c5)c(Cl)c4)c3c2)o1 [Lapatinib] (partner 2 µM)
relative viability: 0.951
//
compound: C[C@@H]1CN(CC(=O)Nc2ccc3c(c2)Cc2cccc(-c4cc(=O)cc(N5CCOCC5)o4)c2S3)C[C@H](C)O1 + CC1(C)CCC(c2ccc(Cl)cc2)=C(CN2CCN(c3ccc(C(=O)NS(=O)(=O)c4ccc(N[C@H](CCN5CCOCC5)CSc5ccccc5)c(S(=O)(=O)C(F)(F)F)c4)cc3)CC2)C1 [Navitoclax] (partner 0.5 µM)
relative viability: 0.759

Measured values drawn from the supplement of paper PMC10307832 for this set.
